Task for the reader: assign each of the following compounds its reported composite z-score.
- method: small-molecule binders of probe aLefty1, primary screen, biochemical, small-molecule microarray, 635/667 nm fluorescence (AID 1153);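 further: score merges spot fluorescence with signal-to-noise ratio from the scanned slide images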
- experimentalContext: higher = more signal
One number for each entry.

compound	dataValue
Cc1ccccc1C(O)C1C=CC2C(=O)N(C)C(=O)C2N1N1CCCCC1 (centres undefined)	0.563
Cc1c(NC(=O)CC#N)c(=O)n(-c2ccccc2)n1C	-0.193
COCCOC(=O)N1C(=O)[C@@]2(c3cc(C#Cc4ccc(OC)cc4)ccc31)[C@H](C(=O)N1CCN(c3ncccn3)CC1)[C@H]1C(=O)O[C@H](c3ccccc3)[C@H](c3ccccc3)N1[C@@H]2c1ccc(O)cc1	0.0773

The reported value for CCCCCN1CC=CC23O[C@@H]4/C=C\CCCOC(=O)C4[C@H]2C(=O)N(CCCCCCO)[C@@H]3C1=O (some centres undefined) in terms of composite z-score is -0.146

* * *

- measurementTarget: Torsin-1A-interacting protein 1 (Homo sapiens) (UniProt Q5JTV8)
- Sequence (Q5JTV8 whole entry, looked up): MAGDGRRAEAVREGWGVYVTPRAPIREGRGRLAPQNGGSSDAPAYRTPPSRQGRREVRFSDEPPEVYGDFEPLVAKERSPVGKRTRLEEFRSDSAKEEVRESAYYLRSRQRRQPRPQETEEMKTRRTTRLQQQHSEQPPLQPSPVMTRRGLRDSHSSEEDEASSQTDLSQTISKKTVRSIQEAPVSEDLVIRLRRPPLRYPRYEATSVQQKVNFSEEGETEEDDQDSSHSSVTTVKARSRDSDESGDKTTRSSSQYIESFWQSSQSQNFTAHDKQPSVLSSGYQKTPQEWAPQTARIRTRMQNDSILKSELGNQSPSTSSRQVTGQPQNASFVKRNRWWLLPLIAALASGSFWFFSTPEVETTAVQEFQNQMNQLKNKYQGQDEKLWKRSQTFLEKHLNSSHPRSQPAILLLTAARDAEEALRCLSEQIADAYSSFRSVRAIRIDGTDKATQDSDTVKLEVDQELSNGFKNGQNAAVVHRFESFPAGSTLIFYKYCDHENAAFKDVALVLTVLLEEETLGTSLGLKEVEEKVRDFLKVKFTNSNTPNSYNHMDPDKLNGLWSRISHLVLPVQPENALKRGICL
- method: LAP1 binders from COS7 cell lysate, primary screen, small-molecule microarray, 635/667 nm fluorescence (AID 1116)
- experimentalContext: COS7-hLAP1 lysate binding, 635 nm fluorescence, higher = more signal
Would you kindly list composite z-score for each of these compounds?
One number for each entry.

compound	measurementTarget	composite z-score
O=C1N(CCS(=O)(=O)c2ccccc2)Cc2ccccc2[C@H]2OC(c3ccc(OCCCO)cc3)=N[C@@]12CCS(=O)(=O)c1ccccc1	Torsin-1A-interacting protein 1 (Homo sapiens) (UniProt Q5JTV8)	1.41

Give one value of composite z-score per listed compound.
1. COc1ccc(C#Cc2ccc3c(c2)[C@]2(C(=O)N3)[C@H](C(=O)NC[C@H](O)c3ccccc3)[C@H]3C(=O)O[C@H](c4ccccc4)[C@H](c4ccccc4)N3[C@@H]2c2ccc(OCCO)cc2)cc1
2. COc1ccc([Si](C)(C)[C@@H]2[C@@H](CC(=O)N(CCO)Cc3ccccc3)O[C@]3(C(=O)N(C)c4ccccc43)[C@H]2C)cc1
3. C=CCC(OC(C)=O)[C@@H]1[C@@H](N(Cc2ccc(-c3ccccc3)cc2)C(=O)Cc2ccc(F)cc2)c2cc(OCCCO)ccc2N1C(=O)c1ccc2ccccc2n1 (stereo not given in full)

Response:
[0.952, 0.44, 0.79]

Consider the following items and state reported composite z-score for each.
1. COC(=O)[C@@]1(Cc2ccccc2)[C@H]2c3cc(C(=O)N4CCCC4)n(Cc4ccc(C)o4)c3C[C@H]2CN1C(=O)c1ccccc1
2. COc1c(C)cc(-c2cc3c(c(-c4ccc(Oc5ccccc5)cc4)n2)[Si](C(C)C)(C(C)C)OC3)cc1C
3. C=C(C(=O)CC[C@H](OC(C)=O)c1ccc(OCCO)cc1)C(C)C

Response:
0.618
-0.0839
0.949

For each of the compounds below, state composite z-score.
1. O=C(CCN1CCOCC1)c1cccc(O)c1
2. CCCCCCc1nc(CCCc2cc3c(c(CCCCCC)n2)[Si](C(C)C)(C(C)C)OC3)cc2c1[Si](C(C)C)(C(C)C)OC2
3. C=C(CCCC)C(=O)CC[C@H](OC(=O)c1cccnc1)c1cccc(OCCO)c1
4. O=C1OCCC=C[C@H]2OC34C=CCN(Cc5ccccc5)C(=O)[C@H]3N(CCCO)C(=O)[C@@H]4C12 (stereo not given in full)
5. C=CCC(OC(C)=O)[C@@H]1[C@@H](N(Cc2cccc3ccccc23)C(=O)c2cccc3ccccc23)c2cc(OCCCO)ccc2N1C(=O)c1ccc2ccccc2n1 (stereo not given in full)
6. Cc1ccc([C@H]2C(C(=O)O)=C[C@@H](C)N2S(=O)(=O)c2ccc(C)cc2)cc1
7. COCCCNC(=O)[C@@]1(CCC(=O)OC(C)(C)C)N=C(c2ccc(OCCCO)cc2)O[C@H]1c1ccccc1CN=[N+]=[N-]

Response:
[0.0422, -0.386, 0.479, 0.0647, -0.117, 0.917, 2.28]

Item: `CCOC(=O)C1=C[C@@H](C(C)C)N(S(=O)(=O)c2ccc(C)cc2)[C@H]1c1ccc(C(C)C)cc1` | composite z-score: 0.324

* * *

- measurementTarget: Fibroblast growth factor 2 (Homo sapiens) (UniProt P09038)
- Sequence (P09038 whole entry, looked up): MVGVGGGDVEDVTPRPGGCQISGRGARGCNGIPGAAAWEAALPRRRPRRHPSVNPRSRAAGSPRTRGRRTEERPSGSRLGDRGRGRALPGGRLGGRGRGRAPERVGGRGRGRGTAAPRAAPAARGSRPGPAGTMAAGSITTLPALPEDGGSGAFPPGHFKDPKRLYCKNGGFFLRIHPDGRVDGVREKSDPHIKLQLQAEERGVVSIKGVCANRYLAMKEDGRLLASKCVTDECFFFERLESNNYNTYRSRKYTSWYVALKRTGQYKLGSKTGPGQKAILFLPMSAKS
- method: FGF2 binders on small-molecule microarrays, primary screen, biochemical, small-molecule microarray, 635/667 nm fluorescence (AID 1133)
- experimentalContext: small-molecule microarray binding, FGF2, fluorescence 635/667; higher = more signal
Please note: Satisfied applies when composite z-score is 0.6 or greater, and Not satisfied applies otherwise.

compound	className
C=CCNC(=O)[C@@H]1[C@H]2C(=O)O[C@H](c3ccccc3)[C@H](c3ccccc3)N2[C@H](c2ccc(O)cc2)[C@@]12C(=O)N(C(=O)OCCOC)c1ccccc12	Not satisfied

Request: Check this compound for composite z-score at or above 0.6: `Cc1ccc(S[C@]2(C(=O)NCc3ccccc3)CC(=O)N(Cc3ccccc3)[C@@H]2c2ccc(CO)cc2)cc1`
Response: Not satisfied

Request: Test whether the compound `O=C1C[C@]2(c3ccc([N+](=O)[O-])cc3)C(=O)N(CC(F)(F)F)c3cc(CO)ccc3[C@H]2N1CC12CC3CC(CC(C3)C1)C2` records composite z-score of 0.6 or higher.
Response: Not satisfied

Request: Confirm if composite z-score reported for the compound `Cc1ccc(S[C@]2(C(=O)NC3CC3)CC(=O)N(C3CCCCC3)[C@@H]2c2ccc(CO)cc2I)cc1` is 0.6 or above.
Response: Not satisfied

Request: hey, is composite z-score for this one >= 0.6? `CC(C)C(=C=CC[C@H](O)c1ccccc1OCCO)C[C@H](O)c1ccccn1`
Response: Satisfied

Request: Textbook exercise: given the entry C[C@H]1NC(=O)[C@H](Cc2ccccc2)NC(=O)[C@@]23C(=O)N[C@@H](Cc4ccccc4)C2[C@H](C)[C@@]2(C)O[C@H]2C3/C=C/C/C=C\CNC1=O (some centres undefined) , state whether its composite z-score is greater than or equal to 0.6.
Response: Not satisfied

Request: # bool: composite z-score of `COc1ccc([Si](C)(C)[C@H]2[C@H](CCn3cc(CCO)nn3)O[C@@]3(C(=O)N(Cc4ccc(N5CCOC5=O)cc4)c4ccccc43)[C@@H]2C)cc1` >= 0.6
Response: Not satisfied

Request: Record `CC(C)NC(=O)[C@@H]1c2ccccc2C(=O)N(Cc2ccccc2)[C@H]1c1ccc(CO)cc1` ; criterion: composite z-score no lower than 0.6. Met?
Response: Not satisfied

Request: Could you please find out whether `CN(C)CCCCCCNC(=O)[C@H]1C[C@H]2C(=O)N[C@@H](CCCCN)C(=O)N2[C@H]1c1ccc(O)cc1` has composite z-score that meets 0.6 or exceeds it?
Response: Satisfied

Request: Test whether the compound `CC(=O)NCCCC[C@@H]1NC(=O)[C@@H]2C[C@H](C(=O)NCCCCN(C)C)[C@H](c3ccc(O)cc3)N2C1=O` records composite z-score of 0.6 or higher.
Response: Satisfied

Request: For this compound, is measured composite z-score 0.6 or higher? `COCCOC(=O)N1C(=O)[C@@]2(c3cc(C#Cc4ccc(OC)cc4)ccc31)[C@H](C(=O)N1CCN(c3ncccn3)CC1)[C@H]1C(=O)O[C@H](c3ccccc3)[C@H](c3ccccc3)N1[C@@H]2c1ccc(O)cc1`
Response: Satisfied

Request: Quick check: does CC(C)c1ccc(NN2C(C(O)c3cccc(O)c3)C=CC3C(=O)N(c4ccccc4)C(=O)C32)cc1 (centres undefined) have composite z-score greater than or equal to 0.6?
Response: Not satisfied

* * *

- System: Wnt5a (protein binding on small-molecule microarray)
- method: Wnt5a binders on small-molecule microarray, primary screen, biophysical, 635/667 nm fluorescence (AID 1142);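 further: fluorescence read at 667 nm with signal to noise per printed feature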
- experimentalContext: 635 nm fluorescence, higher = more signal
measuredEndpoint: composite z-score
One number for each entry.

molecule	composite z-score
C[N+](C)(C)CCCCCCNC(=O)[C@H]1C[C@H]2C(=O)N3CCC[C@H]3C(=O)N2[C@H]1c1ccc(O)cc1	-0.214

Value sought for every listed molecule: composite z-score.
1. CC(C)(C)N1CC=CC23O[C@@H]4/C=C\CCCOC(=O)C4[C@H]2C(=O)N(CCO)[C@@H]3C1=O (stereo partly drawn)
2. COc1ccc(C#Cc2ccc3c(c2)[C@]2(C(=O)N3)[C@H](c3ccc(O)cc3)N3[C@H](c4ccccc4)[C@H](c4ccccc4)OC(=O)[C@H]3[C@@H]2C(=O)N2CCCCCCC2)cc1
3. CCOC(=O)[C@H]1C[C@H]2O[C@@]23C[C@H]1C(=O)N1CCCC1[C@@H]3O[Si](C)(C)C(C)(C)C (stereo partly drawn)

Response:
0.501
1.12
-0.489

* * *

- method: small-molecule microarray binders of probe aWnt5a, primary screen, biochemical, biotinylated probe, 635/667 nm fluorescence (AID 1113);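 further: score merges 667 nm fluorescence intensity with signal-to-noise per printed feature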
- experimentalContext: higher = more signal
measuredEndpoint: composite z-score
Numbers only.

molecule	composite z-score
COc1ccc(CCNC(=O)[C@@]2(Sc3ccc(C)cc3)CC(=O)N(Cc3ccccc3Cl)[C@@H]2c2ccc(CO)cc2I)cc1	-0.184
C=CCOC(=O)[C@H]1[C@@H]2C(=O)O[C@@H](c3ccccc3)[C@@H](c3ccccc3)N2[C@@H](c2ccc(OCCOC(=O)[C@@H]3C[C@@H]4C(=O)N5CCC[C@H]5C(=O)N4[C@@H]3c3ccc(O)cc3)cc2)[C@]12C(=O)Nc1ccccc12	-0.1
CC(C)c1ccc(NN2C(C(O)c3ccc(N(C)C)cc3)C=CC3C(=O)N(c4ccccc4)C(=O)C32)cc1 (centres undefined)	0.0317
COCCOC(=O)N1C(=O)[C@@]2(c3ccccc31)[C@H](C(=O)Nc1nc3ccccc3s1)[C@H]1C(=O)O[C@H](c3ccccc3)[C@H](c3ccccc3)N1[C@@H]2c1ccc(OCCO)cc1	0.135
[N-]=[N+]=NCc1ccccc1[C@@H]1OC(c2ccc(OCCCO)cc2)=N[C@]1(Cc1ccccc1)C(=O)N1CCCCC1	0.0136
CCOC(=O)C[C@H]1[C@H](OC(=O)c2ccc(C(=O)c3ccccc3)cc2)[C@@H](NC(=O)C2CCCCC2)c2cc(OCCCO)ccc2N1C(=O)c1ccccc1	-0.0346

# batch size: 3; output composite z-score per entry
1. O=C(CS)NCCCCCCNC(=O)[C@H]1C[C@H]2C(=O)N3CCC[C@H]3C(=O)N2[C@H]1c1cccc(OCCO)c1
2. COCC(=C=CC[C@@H](O)c1ccc(CO)o1)CCO
3. CN(C)CCCCCCNC(=O)[C@H]1C[C@H]2C(=O)N[C@@H](CCCCN)C(=O)N2[C@H]1c1ccc(O)cc1

Response:
1. -0.0236
2. -0.124
3. 0.914

List reported composite z-score for each of these molecules:
1. CO[C@H]1O[C@H](CO)[C@@H](OC(=O)Nc2ccc3c(c2)OCO3)[C@H](OC(=O)Nc2ccccc2)[C@H]1OC(=O)Nc1ccccc1
2. COC(=O)[C@@]1(Cc2ccc(F)cc2)[C@H]2c3cc(C(=O)N(C)C)n(CCc4ccccn4)c3C[C@H]2CN1C(=O)c1ccccc1
3. O=C1N(CCS(=O)(=O)c2ccccc2)Cc2ccccc2[C@H]2OC(c3ccc(OCCCO)cc3)=N[C@@]12CCS(=O)(=O)c1ccccc1
4. CC(C)(C)N1CC=CC23O[C@@H]4/C=C\CCCOC(=O)C4[C@H]2C(=O)N(CCO)[C@@H]3C1=O (some centres undefined)

Response:
[-0.0519, 1.12, 0.115, -0.18]

# composite z-score of `Cc1ccc(S[C@]2(C(=O)NC3CC3)CC(=O)N(C3CCCCC3)[C@@H]2c2ccc(CO)cc2I)cc1` = -0.154

The reported numbers originate from PubChem BioAssay.
